Test: Single ascending oral dose study in healthy volunteers: plasma pharmacokinetics
Format: in vivo, human
Conditions: human, plasma, oral, 6 Hours Postdose; 350 mg + 525 mg; read-out: Plasma concentration, Geometric Mean
Source text: This example describes the first-in-human study of Compound I. Based on its mechanism of action, Compound I may offer a targeted therapy for patients with DCM caused by genetic or nongenetic mechanisms. […] The concentrations of Compound I in human plasma and urine were quantitated by high performance liquid chromatography with tandem mass spectrometric detection (LC MS/MS) (Biological sample analysis study report Alturas AD17-726). […]
Readout: concentration at 6 h

q: For the compound Cn1cc(S(=O)(=O)[C@@](C)(F)C2CCN(C(=O)Nc3ccon3)CC2)c(C(F)F)n1 , what concentration at 6 h is on record?
a: 2380 ng/mL

* * *

assay: Physicochemical and biopharmaceutical properties of the drug substance (PBPK model input); conditions: blood and plasma; Dog; in vitro measured; read-out: B:P (Dog), ratio of concentration of drug in blood to plasma
Readout: blood plasma ratio
# answer = number (no unit)

q: For the molecule Cn1cc(S(=O)(=O)[C@@](C)(F)C2CCN(C(=O)Nc3ccon3)CC2)c(C(F)F)n1 [Compound I] , what blood plasma ratio is on record?
a: 0.8

* * *

experiment: Single ascending oral dose study in healthy volunteers: plasma pharmacokinetics; assay type: in vivo, human; conditions: human, plasma, oral, healthy volunteers; read-out: Tmax
Readout: Tmax

q: For the compound Cn1cc(S(=O)(=O)[C@@](C)(F)C2CCN(C(=O)Nc3ccon3)CC2)c(C(F)F)n1 [Compound I] , what Tmax is on record?
a: 4 to 6 h

* * *

test: Single ascending oral dose study in healthy volunteers: plasma pharmacokinetics; assay type: in vivo, human; details: human, plasma, oral, 3 mg, 48 Hours Postdose; 3 mg; read-out: Plasma concentration, Geometric Mean
Readout: concentration at 48 h (ng/mL)
Kindly answer with a numeric value in ng/mL, unit omitted.

q: For the compound Cn1cc(S(=O)(=O)[C@@](C)(F)C2CCN(C(=O)Nc3ccon3)CC2)c(C(F)F)n1 , what concentration at 48 h is on record?
a: 2.29

* * *

Test: Food effect cross-over study, 200 mg (25 mg tablets), healthy volunteers: plasma pharmacokinetics
Type: in vivo, human
Details: human, plasma, po, single 200 mg oral dose, Fed (N = 10), read-out: MRT, Median
Experimental: This example describes a clinical study for establishing, in healthy volunteers, the effect of a high fat, high caloric meal on the PK profile of Compound I, as compared to administration of the drug in the fasted state. The study also was intended to determine the safety and tolerability after a single oral dose of Compound I in the fed and fasted state in healthy volunteers. […] Plasma drug concentrations were measured as described in Example 1 above. […]
Readout: MRT

q: For the compound Cn1cc(S(=O)(=O)[C@@](C)(F)C2CCN(C(=O)Nc3ccon3)CC2)c(C(F)F)n1 [Compound I] , what MRT is on record?
a: 23.6 h

* * *

Experiment: Single ascending oral dose study in healthy volunteers: plasma pharmacokinetics
Type: in vivo, human
Conditions: human, plasma, oral, 175 mg; read-out: AUC0-24, Geometric Mean
Text: This example describes the first-in-human study of Compound I. Based on its mechanism of action, Compound I may offer a targeted therapy for patients with DCM caused by genetic or nongenetic mechanisms. […] The concentrations of Compound I in human plasma and urine were quantitated by high performance liquid chromatography with tandem mass spectrometric detection (LC MS/MS) (Biological sample analysis study report Alturas AD17-726). […]
Readout: AUC(0-t) (µg·h/mL)
Kindly answer with a numeric value in µg·h/mL, unit omitted.

q: For the compound Cn1cc(S(=O)(=O)[C@@](C)(F)C2CCN(C(=O)Nc3ccon3)CC2)c(C(F)F)n1 [Compound I] , what AUC(0-t) is on record?
a: 22
